The reported measurements were obtained from patent US9221809B2.

- measured.target: IRAK4 (Homo sapiens (Human))
- method.notes: IRAK4 kinase activity, IMAP fluorescence polarization assay
- Type: biochemical
- condition.set: 100 μM ATP, 0.5 nM GST tagged IRAK4; read-out: IRAK4 IC50
observed.property: pIC50
Kindly note that pIC50 refers to -log10 of the concentration in mol/L and answer with the value alone.

{"mol.smiles": "Cc1csc(-c2c(N[C@@H]3C[C@H](CO)[C@@H](O)[C@H]3O)nc(N3CCC(C(F)(F)F)CC3)[nH]c2=O)n1", "observed.property": "pIC50", "test.value": 7.03}
{"mol.smiles": "O=c1[nH]c(Nc2ccncc2)nc(N[C@@H]2C[C@H](CO)[C@@H](O)[C@H]2O)c1-c1nc2ccccc2s1", "observed.property": "pIC50", "test.value": 6.18}
{"mol.smiles": "O=c1[nH]c(NC2COC2)nc(N[C@@H]2C[C@H](CO)[C@@H](O)[C@H]2O)c1-c1nc2ccccc2s1", "observed.property": "pIC50", "test.value": 6.05}
{"mol.smiles": "O=c1[nH]c(NC2CCC2)nc(N[C@@H]2C[C@H](CO)[C@@H](O)[C@H]2O)c1-c1nc2cnccc2s1", "observed.property": "pIC50", "test.value": 8.60}

Q: May I ask what pIC50 has been recorded for `O=c1[nH]c(N2CCOCC2)nc(N[C@@H]2CCCNC2)c1-c1nc2cccc(C3CC3)c2s1` ?
A: 5.35

Q: May I ask what pIC50 has been recorded for `O=c1[nH]c(N2CCCCC2)nc(N[C@@H]2C[C@H](CO)[C@@H](O)[C@H]2O)c1-c1ccc2ccccc2n1` ?
A: 7.64

Q: May I ask what pIC50 has been recorded for `O=c1[nH]c(Nc2ccc(F)cc2)nc(N[C@@H]2C[C@H](CO)[C@@H](O)[C@H]2O)c1-c1nc2ccccc2s1` ?
A: 6.55

----------
- measured.target: IRAK4 (Homo sapiens (Human), UniProt Q9NWZ3)
- Sequence (Q9NWZ3 whole entry): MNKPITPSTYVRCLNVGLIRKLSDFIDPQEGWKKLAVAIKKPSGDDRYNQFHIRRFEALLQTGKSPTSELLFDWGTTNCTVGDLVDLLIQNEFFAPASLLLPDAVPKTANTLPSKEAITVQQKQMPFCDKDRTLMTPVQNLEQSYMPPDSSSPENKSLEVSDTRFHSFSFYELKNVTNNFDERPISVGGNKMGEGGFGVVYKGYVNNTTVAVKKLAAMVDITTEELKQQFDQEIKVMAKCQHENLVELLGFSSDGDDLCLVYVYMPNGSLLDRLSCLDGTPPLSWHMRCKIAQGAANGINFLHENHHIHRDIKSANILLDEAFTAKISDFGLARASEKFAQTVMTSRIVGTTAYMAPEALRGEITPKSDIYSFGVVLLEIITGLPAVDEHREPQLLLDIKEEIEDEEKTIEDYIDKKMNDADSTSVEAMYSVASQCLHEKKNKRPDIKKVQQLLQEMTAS
- method.notes: IRAK4 kinase activity, IMAP fluorescence polarization assay
- Type: biochemical
- condition.set: 100 μM ATP, 0.5 nM GST tagged IRAK4; read-out: IRAK4 IC50
Could you mark each record MET if its IC50 falls strictly under 0.7 µM, and NOT MET if it equals or exceeds it?

Past entries and their recorded results:
{"molecule": "O=c1[nH]c(NC2CNC2)nc(N[C@@H]2C[C@H](CO)[C@@H](O)[C@H]2O)c1-c1nc2ccccc2s1", "group": "MET"}
{"molecule": "O=c1[nH]c(N2CCOCC2)nc(NCC(O)CO)c1-c1nc2ccccc2s1 (stereo not shown)", "group": "NOT MET"}
{"molecule": "O=c1[nH]c(Nc2cncnc2)nc(N[C@@H]2C[C@H](CO)[C@@H](O)[C@H]2O)c1-c1nc2ccccc2s1", "group": "MET"}
{"molecule": "O=c1[nH]c(N2CCOCC2)nc(N[C@@H]2C[C@H](CO)[C@@H](O)[C@H]2O)c1-c1ccc2ccccc2n1", "group": "MET"}
{"molecule": "C[C@@]1(O)[C@H](O)[C@@H](CO)C[C@H]1Nc1nc(NC2CCC2)[nH]c(=O)c1-c1nc2ccccc2s1", "group": "MET"}

Q: Could you please tell me whether IC50 recorded for C[C@H]1CC[C@@H](Nc2nc(N3CCOCC3)[nH]c(=O)c2-c2ccc3ccccc3n2)CN1 (racemic) is less than 0.7 µM?
A: MET

Q: Could you please tell me whether IC50 recorded for `O=c1[nH]c(NC2CCC2)nc(N[C@@H]2C[C@H](CO)[C@@H](O)[C@H]2O)c1-c1nccs1` is less than 0.7 µM?
A: NOT MET

Q: Could you please tell me whether IC50 recorded for `CS(=O)(=O)N1CCN(c2nc(N[C@@H]3C[C@H](CO)[C@@H](O)[C@H]3O)c(-c3nc4ccccc4s3)c(=O)[nH]2)CC1` is less than 0.7 µM?
A: MET

Q: Could you please tell me whether IC50 recorded for C[C@H]1CC[C@@H](Nc2nc(N3CCOCC3)[nH]c(=O)c2-c2nc3ccccc3s2)CN1 (racemic) is less than 0.7 µM?
A: NOT MET

Q: Could you please tell me whether IC50 recorded for `O=c1[nH]c(N2CCOCC2)nc(N[C@H]2CCNC2)c1-c1nc2ccccc2s1` is less than 0.7 µM?
A: MET
